# Target: Staphylococcal nuclease (SN) (Staphylococcus aureus, UniProt P00644)
# Settings: SN/L36C; 35.3 °C; from single ΔΔGU measurement; read-out: apparent KD (binary complex)
Measured Quantity: Kd (µM)

1) [Ca+2] [Ca^2+] ... 600
2) Cc1cn([C@H]2C[C@H](OP(=O)(O)O)[C@@H](COP(=O)(O)O)O2)c(=O)[nH]c1=O [pdTp] ... 23

###

# Target: E. coli ribose-binding protein (ecRBP) (Escherichia coli, UniProt P02925, A213C/T28W)
# Sequence (P02925 other isoform, or with tags, fused parts or gaps T28W/A213C): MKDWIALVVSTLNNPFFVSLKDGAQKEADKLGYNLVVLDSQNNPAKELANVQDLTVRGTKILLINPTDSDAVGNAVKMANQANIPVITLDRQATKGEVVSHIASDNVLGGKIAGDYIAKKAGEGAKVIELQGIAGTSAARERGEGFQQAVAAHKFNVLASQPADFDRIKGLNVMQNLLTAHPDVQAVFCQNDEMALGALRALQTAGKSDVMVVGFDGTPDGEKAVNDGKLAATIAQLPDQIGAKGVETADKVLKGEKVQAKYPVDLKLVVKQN
# Experiment: biochemical
# Experimental: The rate of labeling of internal cysteine residues was measured by reacting 30-50 μL of ˜0.1 μM protein sample (i.e., ˜3-5 picomoles of protein) with excess IAM-biotin (1 mM unless otherwise stated) at constant temperature (25 mM MOPS, 100 mM KCl and pH 7.6). 5 μL aliquots were removed at fixed time intervals and quenched by addition of 2 μL 2M β-mercaptoethanol (Sigma; M6250). […]
Measured Quantity: Kd (nM)

1) O=C[C@H](O)[C@H](O)[C@H](O)CO [ribose, reference compound] ... 1800
